Give measured interaction score for each item. Keep answers brief.
# assay.system: T1, 4H3926-bN
# T1 chain: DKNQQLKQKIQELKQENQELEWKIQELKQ
# procedure.text: two-hybrid library CCNG1;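 note: natural log of median RNA to DNA barcode read ratio; higher means stronger binding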
Numbers only.

Examples with their reported interaction score follow.
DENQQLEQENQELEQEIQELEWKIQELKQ [4H1158-bN]; -1.19
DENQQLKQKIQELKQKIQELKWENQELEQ [4H1899-bN]; -0.429
DKNQQLEQKNQELEQEIQELEWKIQELKQ [4H3462-bN]; -0.216

I'm hoping you can list interaction score for every binder here, please.
1. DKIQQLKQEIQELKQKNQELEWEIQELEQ [4H2673-bN]
2. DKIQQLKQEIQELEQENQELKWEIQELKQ [4H2586-bN]
3. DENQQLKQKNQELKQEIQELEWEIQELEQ [4H1985-bN]

-0.806
0.209
-1.25

I'm hoping you can list interaction score for every binder here, please.
1. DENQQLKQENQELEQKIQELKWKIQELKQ [4H1710-bN]
2. DKNQQLKQEIQELEQKIQELKWENQELKQ [4H3628-bN]
3. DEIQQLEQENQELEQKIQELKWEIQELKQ [4H170-bN]
4. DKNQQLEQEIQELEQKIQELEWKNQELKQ [4H3112-bN]
5. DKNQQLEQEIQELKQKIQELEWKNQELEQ [4H3175-bN]
6. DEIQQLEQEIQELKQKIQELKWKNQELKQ [4H112-bN]
7. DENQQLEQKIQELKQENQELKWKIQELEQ [4H1373-bN]
8. DKNQQLEQKNQELEQKIQELKWEIQELEQ [4H3497-bN]

1: -0.569; 2: -0.307; 3: 0.153; 4: 0.154; 5: -0.72; 6: -1.67; 7: 1.21; 8: -1.9

I'm hoping you can list interaction score for every binder here, please.
1. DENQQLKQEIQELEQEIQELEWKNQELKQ [4H1544-bN]
2. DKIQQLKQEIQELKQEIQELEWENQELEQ [4H2627-bN]
3. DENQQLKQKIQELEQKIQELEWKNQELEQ [4H1831-bN]
4. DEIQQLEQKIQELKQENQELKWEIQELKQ [4H346-bN]
5. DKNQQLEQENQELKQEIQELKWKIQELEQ [4H3277-bN]
6. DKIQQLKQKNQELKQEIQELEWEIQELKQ [4H3010-bN]
7. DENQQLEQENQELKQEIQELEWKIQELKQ [4H1222-bN]

-0.652
-0.972
-0.39
1.53
-0.4
-0.546
0.755
